- SYSTEM: T1, RCD1-RST(499-572) (Arabidopsis thaliana, UniProt Q8RY59 499-572)
- T1 construct: also called AtRCD1-RST; αα-hub RCD1-RST; source: E. coli BL21(DE3), purified (Source 15S cation exchange, Superdex 75 SEC)
- T1 sequence (looked up): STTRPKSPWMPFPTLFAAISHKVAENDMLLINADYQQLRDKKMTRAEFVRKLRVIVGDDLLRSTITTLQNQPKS
- ASSAY_PROTOCOL: ITC; 9-12 µM DREB2A(244-272) peptide in the cell, 92-100 µM RCD1-RST(499-572) in the syringe; 25 °C, 50 mM HEPES pH 7.4, 300 mM NaCl; one set of sites model; n = 3
- ASSAY_SETUP: both partners purified
pKd: −log10 of the molar value.
ASSAY_READOUT: pKd

[[record]]
binder = "WPNDVDQSHLDSSDMFDVDELLGDLNGDD (peptide, UniProt O82132 244-272, looked up, Expressed as GST-tagged peptide; 13C,15N-labelled for NMR, unlabelled for ITC; also called DREB2A-R266G; source: E. coli BL21(DE3), purified (Glutathione Sepharose 4B, reversed phase Vydac C18)) [DREB2A(244-272)-R266G]"
measurement = 6.43

[[record]]
binder = "WPNDVDQSHLDSSDMFDVDELLRLLNGDD (peptide, UniProt O82132 244-272, looked up, Expressed as GST-tagged peptide; 13C,15N-labelled for NMR, unlabelled for ITC; also called DREB2A-D267L; source: E. coli BL21(DE3), purified (Glutathione Sepharose 4B, reversed phase Vydac C18)) [DREB2A(244-272)-D267L]"
measurement = 7.18

[[record]]
binder = "WPNDVDQSHLDSSDMFDVDELLRDLNGDD (peptide, UniProt O82132 244-272, looked up, Expressed as GST-tagged peptide; 13C,15N-labelled for NMR, unlabelled for ITC; also called DREB2A-WT; source: E. coli BL21(DE3), purified (Glutathione Sepharose 4B, reversed phase Vydac C18)) [DREB2A(244-272)-WT]"
measurement = 7.08

